Below: a set of entries, each annotated with reported residual activity.
Biological target: UniProt Q9P0L2
Sequence (Q9P0L2 whole entry, looked up): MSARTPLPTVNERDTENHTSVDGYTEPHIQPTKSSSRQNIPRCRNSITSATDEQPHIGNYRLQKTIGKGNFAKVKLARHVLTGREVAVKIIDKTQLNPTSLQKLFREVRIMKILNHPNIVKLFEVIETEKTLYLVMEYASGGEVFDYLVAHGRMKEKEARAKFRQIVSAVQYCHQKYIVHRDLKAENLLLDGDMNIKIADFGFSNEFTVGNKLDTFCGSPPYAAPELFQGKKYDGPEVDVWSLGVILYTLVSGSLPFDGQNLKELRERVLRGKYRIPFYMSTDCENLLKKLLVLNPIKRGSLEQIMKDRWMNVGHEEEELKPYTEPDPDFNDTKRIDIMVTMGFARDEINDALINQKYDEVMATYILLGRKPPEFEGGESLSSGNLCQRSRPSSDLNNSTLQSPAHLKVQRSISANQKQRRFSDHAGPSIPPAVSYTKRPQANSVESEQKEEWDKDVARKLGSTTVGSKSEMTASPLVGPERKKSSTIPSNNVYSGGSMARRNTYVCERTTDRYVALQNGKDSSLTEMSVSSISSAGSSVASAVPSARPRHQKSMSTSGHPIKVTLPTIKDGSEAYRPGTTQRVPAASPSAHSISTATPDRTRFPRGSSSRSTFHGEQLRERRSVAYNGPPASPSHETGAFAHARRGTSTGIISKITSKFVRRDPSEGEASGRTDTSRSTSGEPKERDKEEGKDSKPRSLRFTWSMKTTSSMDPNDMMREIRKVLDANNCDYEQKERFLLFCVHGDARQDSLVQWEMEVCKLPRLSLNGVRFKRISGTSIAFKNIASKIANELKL
Experiment: radiometric filter-binding kinase assay, Kinase HotSpot
Conditions: compound 0.5 µM; ATP 10 µM
Give a bare numeral; the unit % is implied.

NC(=O)c1ccc(N(C(N)=O)c2c(F)cccc2F)nc1-c1ccc(F)cc1F; 132
COc1cc2ncnc(Nc3ccc(F)c(Cl)c3)c2cc1OCCCN1CCOCC1; 116
CS(=O)c1ccc(-c2nc(-c3ccc(F)cc3)c(-c3ccncc3)[nH]2)cc1 (centres undefined); 105

Now, please, on to the next compound.
Prompt line: Item CC(C)[C@H](CO)Nc1nc(Nc2cccc(Cl)c2)c2ncn(C(C)C)c2n1 : provide residual activity
Response line: 94.5

* * *

Molecular target: MARK1 (human)
Experiment: radiometric filter-binding kinase assay, Kinase HotSpot
Conditions: compound 0.5 µM; ATP 10 µM
metricName: residual activity
Give your result as the value with the unit written after it.

C#Cc1cccc(Nc2ncnc3cc(OCCOC)c(OCCOC)cc23)c1; 130%
COc1cc2nccc(Oc3ccc(NC(=S)NC(=O)c4ccccc4C)cc3)c2cc1OC; 91.4%
O=C(NC(NC(=S)Nc1ccc(F)c([N+](=O)[O-])c1)C(Cl)(Cl)Cl)C(c1ccccc1)c1ccccc1 (centres undefined); 101%

Prompt line: Item O=c1cc(-c2cccc3c2Sc2ccccc2S3)oc(N2CCOCC2)c1 : provide residual activity
Response line: 100%

* * *

Below: a set of entries, each annotated with reported residual activity.
Biological target: SRPK3 (human)
Test: radiometric filter-binding kinase assay, Kinase HotSpot
Conditions: compound 0.5 µM; ATP 10 µM
Give a bare numeral; the unit % is implied.

Previously resolved entries follow.
O=C1Cc2c([nH]c3ccc([N+](=O)[O-])cc23)-c2ccccc2N1; 92.7
O=C1Nc2ccccc2/C1=C\c1c(Cl)[nH]c2ccccc12; 97.1
COc1ccc(-c2cnc3c(-c4ccsc4)cnn3c2)cc1; 94.1

Prompt line: Item O=c1cc(-c2cccc3c2Sc2ccccc2S3)oc(N2CCOCC2)c1 : provide residual activity
Response line: 99.6

Prompt line: Item Cc1cc2ncc(-c3ccccc3)nc2cc1C : provide residual activity
Response line: 91.4

Prompt line: Item CS(=O)c1ccc(-c2nc(-c3ccc(F)cc3)c(-c3ccncc3)[nH]2)cc1 (stereo unspecified) : provide residual activity
Response line: 99.4

* * *

Target: RPS6KA2 KD1 KD2 (human) (UniProt Q15349)
Sequence (Q15349 whole entry, looked up): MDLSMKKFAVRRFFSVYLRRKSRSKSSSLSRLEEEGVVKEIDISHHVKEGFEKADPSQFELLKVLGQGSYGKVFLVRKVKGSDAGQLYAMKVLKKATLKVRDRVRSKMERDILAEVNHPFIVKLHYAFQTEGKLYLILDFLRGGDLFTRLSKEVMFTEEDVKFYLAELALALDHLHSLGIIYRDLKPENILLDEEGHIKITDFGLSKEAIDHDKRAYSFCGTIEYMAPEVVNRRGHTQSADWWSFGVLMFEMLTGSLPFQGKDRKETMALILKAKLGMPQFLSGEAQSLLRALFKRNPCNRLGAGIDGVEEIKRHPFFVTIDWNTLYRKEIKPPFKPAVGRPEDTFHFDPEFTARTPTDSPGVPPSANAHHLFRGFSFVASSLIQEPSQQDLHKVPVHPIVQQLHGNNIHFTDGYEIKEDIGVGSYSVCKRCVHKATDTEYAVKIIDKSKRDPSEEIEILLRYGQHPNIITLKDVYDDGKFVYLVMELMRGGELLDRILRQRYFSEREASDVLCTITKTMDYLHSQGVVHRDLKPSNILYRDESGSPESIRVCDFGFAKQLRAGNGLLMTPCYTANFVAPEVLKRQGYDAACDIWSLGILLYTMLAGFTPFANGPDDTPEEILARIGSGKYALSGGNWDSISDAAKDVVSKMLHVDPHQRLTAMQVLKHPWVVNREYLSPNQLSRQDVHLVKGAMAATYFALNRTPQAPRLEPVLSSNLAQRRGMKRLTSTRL
Assay: radiometric filter-binding kinase assay, Kinase HotSpot
Conditions: compound 0.5 µM; ATP 10 µM
Below: a set of entries, each annotated with reported residual activity.

Cc1cc2ncc(-c3ccccc3)nc2cc1C; 92.5%
COc1cc2nccc(Oc3ccc(NC(=S)NC(=O)c4ccccc4C)cc3)c2cc1OC; 91.1%

Now, please, on to the next molecule.
Prompt line: Find the measured residual activity of COc1ccc(-c2cnc3c(-c4ccsc4)cnn3c2)cc1 with RPS6KA2 KD1 KD2 (human) (UniProt Q15349) as test system.
Response line: 87.5%

* * *

Below: a set of entries, each annotated with reported residual activity.
Biological target: BMX (human) (UniProt P51813)
Sequence (P51813 whole entry, looked up): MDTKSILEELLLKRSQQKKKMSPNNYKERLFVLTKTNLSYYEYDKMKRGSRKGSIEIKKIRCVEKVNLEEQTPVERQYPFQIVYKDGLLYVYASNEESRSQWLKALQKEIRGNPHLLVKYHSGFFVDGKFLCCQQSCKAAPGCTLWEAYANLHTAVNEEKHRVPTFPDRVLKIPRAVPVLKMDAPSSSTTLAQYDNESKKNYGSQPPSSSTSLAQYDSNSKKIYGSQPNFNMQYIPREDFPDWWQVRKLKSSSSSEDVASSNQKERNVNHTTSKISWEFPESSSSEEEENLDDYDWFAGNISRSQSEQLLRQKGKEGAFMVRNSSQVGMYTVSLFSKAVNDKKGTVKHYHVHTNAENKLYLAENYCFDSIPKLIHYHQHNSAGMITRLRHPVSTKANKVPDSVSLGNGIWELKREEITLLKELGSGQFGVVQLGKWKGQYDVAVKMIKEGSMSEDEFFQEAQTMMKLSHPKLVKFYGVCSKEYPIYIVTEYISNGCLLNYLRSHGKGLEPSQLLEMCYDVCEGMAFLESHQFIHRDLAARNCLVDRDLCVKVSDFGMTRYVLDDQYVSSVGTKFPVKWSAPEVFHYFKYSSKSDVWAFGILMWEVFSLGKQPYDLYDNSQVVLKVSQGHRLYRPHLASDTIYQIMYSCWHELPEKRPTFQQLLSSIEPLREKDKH
Test: radiometric filter-binding kinase assay, Kinase HotSpot
Conditions: compound 0.5 µM; ATP 10 µM
Give a bare numeral; the unit % is implied.

O=C1Nc2cc(Br)ccc2/C1=C1/Nc2ccccc2/C1=N\O; 29.2
O=c1cc(N2CCNCC2)oc2c(-c3ccccc3)cccc12; 98
Oc1ccc(-c2nc(-c3ccc(F)cc3)c(-c3ccncc3)[nH]2)cc1; 93.9
CCN1/C(=C/C(C)=O)Sc2ccc(OC)cc21; 105
O=c1cc(-c2cccc3c2Sc2ccccc2S3)oc(N2CCOCC2)c1; 112

Prompt line: Item CC(C)[C@H](CO)Nc1nc(Nc2cccc(Cl)c2)c2ncn(C(C)C)c2n1 : provide residual activity
Response line: 84.3

Prompt line: Item NC(=O)c1ccc(N(C(N)=O)c2c(F)cccc2F)nc1-c1ccc(F)cc1F : provide residual activity
Response line: 108

Prompt line: Item C#Cc1cccc(Nc2ncnc3cc(OCCOC)c(OCCOC)cc23)c1 : provide residual activity
Response line: 100

Prompt line: Item CCCNC(=O)Nc1ccc(Oc2ncnc3cc(OC)c(OC)cc23)cc1Cl : provide residual activity
Response line: 93.6

Prompt line: Item O=C(Nc1ccc(Cl)cc1)c1ccccc1NCc1ccncc1 : provide residual activity
Response line: 90.5

Prompt line: Item Cc1cc2ncc(-c3ccccc3)nc2cc1C : provide residual activity
Response line: 90

Prompt line: Item COc1cc2ncnc(Nc3ccc(F)c(Cl)c3)c2cc1OCCCN1CCOCC1 : provide residual activity
Response line: 102
